system: MDA-MB-468; assay: Growth inhibition of human MDA-MB-468 cells at 10 uM incubated for 48 hrs by sulforhodamine B assay relative to control; assay type: functional; details: MDA-MB-468, 48 h, read-out: GI
PROPERTY: inhibition of growth at 10 µM (%)

>>> quantitative_readout("CCOC(=O)c1ccc(Nc2ccnc(SCC(=O)c3ccc(C#N)cc3)n2)cc1")
52
>>> quantitative_readout("CC(=O)c1ccc(Nc2ccnc(SCC(=O)c3ccc(-c4ccccc4)cc3)n2)cc1")
13
>>> quantitative_readout("CC(=O)c1cccc(Nc2ccnc(SCC(=O)c3ccc(-c4ccccc4)cc3)n2)c1")
14
>>> quantitative_readout("CC(=O)c1ccc(Nc2ccnc(SCC(=O)c3ccc(Br)cc3)n2)cc1")
21
>>> quantitative_readout("O=C(CSc1nccc(Nc2ccc(N3CCOCC3)cc2)n1)c1ccc(Cl)cc1")
19

----------
Each entry below lists one item and its recorded inhibition of growth at 10 µM value.
tested on: RPMI-8226; assay: Growth inhibition of human RPMI8226 cells at 10 uM incubated for 48 hrs by sulforhodamine B assay relative to control; assay type: functional; details: RPMI-8226, 48 h, read-out: GI
PROPERTY: inhibition of growth at 10 µM

>>> result("O=C(CSc1nccc(Nc2ccc(N3CCOCC3)cc2)n1)c1ccc(Cl)cc1")
"10%"
>>> result("O=C(CSc1nccc(Nc2ccc(N3CCOCC3)cc2)n1)c1ccc(F)cc1")
"21%"
>>> result("CC(=O)c1cccc(Nc2ccnc(SCC(=O)c3ccc(C(F)(F)F)cc3)n2)c1")
"31%"
>>> result("CC(=O)c1ccc(Nc2ccnc(SCC(=O)c3ccc(Cl)cc3)n2)cc1")
"46%"
>>> result("COc1ccc(C(=O)CSc2nccc(Nc3cccc(C(C)=O)c3)n2)cc1")
"42%"
>>> result("CCOC(=O)c1ccc(Nc2ccnc(SCC(=O)c3ccc([N+](=O)[O-])cc3)n2)cc1")
"54%"

----------
test system: NCI-H226; assay: Growth inhibition of human NCI-H226 cells at 10 uM incubated for 48 hrs by sulforhodamine B assay relative to control; format: functional; details: NCI-H226, 48 h, read-out: GI
Each entry below lists one item and its recorded inhibition of growth at 10 µM value.
PROPERTY: inhibition of growth at 10 µM (%)

>>> quantitative_readout("CC(=O)c1cccc(Nc2ccnc(SCC(=O)c3ccc(-c4ccccc4)cc3)n2)c1")
22
>>> quantitative_readout("CC(=O)c1ccc(Nc2ccnc(SCC(=O)c3ccc(-c4ccccc4)cc3)n2)cc1")
11
>>> quantitative_readout("O=C(CSc1nccc(Nc2ccc(N3CCOCC3)cc2)n1)c1ccc(F)cc1")
45

----------
tested on: MDA-MB-231; test: Growth inhibition of human MDA-MB-231 cells at 10 uM incubated for 48 hrs by sulforhodamine B assay relative to control; assay type: functional; conditions: MDA-MB-231, 48 h, read-out: GI
Each entry below lists one item and its recorded inhibition of growth at 10 µM value.
PROPERTY: inhibition of growth at 10 µM (%)

>>> quantitative_readout("O=C(CSc1nccc(Nc2ccc(N3CCOCC3)cc2)n1)c1ccc(Cl)cc1")
10
>>> quantitative_readout("O=C(CSc1nccc(Nc2ccc(N3CCOCC3)cc2)n1)c1ccc(F)cc1")
22
>>> quantitative_readout("CCOC(=O)c1ccc(Nc2ccnc(SCC(=O)c3ccc([N+](=O)[O-])cc3)n2)cc1")
22
>>> quantitative_readout("CC(=O)c1cccc(Nc2ccnc(SCC(=O)c3ccc(C(F)(F)F)cc3)n2)c1")
22
>>> quantitative_readout("CC(=O)c1cccc(Nc2ccnc(SCC(=O)c3ccc(-c4ccccc4)cc3)n2)c1")
41
>>> quantitative_readout("CC(=O)c1ccc(Nc2ccnc(SCC(=O)c3ccc(-c4ccccc4)cc3)n2)cc1")
22
>>> quantitative_readout("O=C(O)c1ccc(Nc2ccnc(SCC(=O)c3ccc(C(F)(F)F)cc3)n2)cc1")
24
>>> quantitative_readout("CC(=O)c1ccc(Nc2ccnc(SCC(=O)c3ccc(Br)cc3)n2)cc1")
12
>>> quantitative_readout("COc1ccc(C(=O)CSc2nccc(Nc3ccc(N4CCOCC4)cc3)n2)cc1")
11
>>> quantitative_readout("CCOC(=O)c1ccc(Nc2ccnc(SCC(=O)c3ccc(C#N)cc3)n2)cc1")
19

----------
Each entry below lists one item and its recorded pIC50 value.
molecular target: UniProt P35968; test: Inhibition of human N-terminal GST tagged VEGFR-2 expressed in baculovirus infected Sf9 cells using poly (Glu,Tyr) 4:1 as substrate in presence of ATP by Kinase-Glo luminescence assay
Sequence (P35968 whole entry): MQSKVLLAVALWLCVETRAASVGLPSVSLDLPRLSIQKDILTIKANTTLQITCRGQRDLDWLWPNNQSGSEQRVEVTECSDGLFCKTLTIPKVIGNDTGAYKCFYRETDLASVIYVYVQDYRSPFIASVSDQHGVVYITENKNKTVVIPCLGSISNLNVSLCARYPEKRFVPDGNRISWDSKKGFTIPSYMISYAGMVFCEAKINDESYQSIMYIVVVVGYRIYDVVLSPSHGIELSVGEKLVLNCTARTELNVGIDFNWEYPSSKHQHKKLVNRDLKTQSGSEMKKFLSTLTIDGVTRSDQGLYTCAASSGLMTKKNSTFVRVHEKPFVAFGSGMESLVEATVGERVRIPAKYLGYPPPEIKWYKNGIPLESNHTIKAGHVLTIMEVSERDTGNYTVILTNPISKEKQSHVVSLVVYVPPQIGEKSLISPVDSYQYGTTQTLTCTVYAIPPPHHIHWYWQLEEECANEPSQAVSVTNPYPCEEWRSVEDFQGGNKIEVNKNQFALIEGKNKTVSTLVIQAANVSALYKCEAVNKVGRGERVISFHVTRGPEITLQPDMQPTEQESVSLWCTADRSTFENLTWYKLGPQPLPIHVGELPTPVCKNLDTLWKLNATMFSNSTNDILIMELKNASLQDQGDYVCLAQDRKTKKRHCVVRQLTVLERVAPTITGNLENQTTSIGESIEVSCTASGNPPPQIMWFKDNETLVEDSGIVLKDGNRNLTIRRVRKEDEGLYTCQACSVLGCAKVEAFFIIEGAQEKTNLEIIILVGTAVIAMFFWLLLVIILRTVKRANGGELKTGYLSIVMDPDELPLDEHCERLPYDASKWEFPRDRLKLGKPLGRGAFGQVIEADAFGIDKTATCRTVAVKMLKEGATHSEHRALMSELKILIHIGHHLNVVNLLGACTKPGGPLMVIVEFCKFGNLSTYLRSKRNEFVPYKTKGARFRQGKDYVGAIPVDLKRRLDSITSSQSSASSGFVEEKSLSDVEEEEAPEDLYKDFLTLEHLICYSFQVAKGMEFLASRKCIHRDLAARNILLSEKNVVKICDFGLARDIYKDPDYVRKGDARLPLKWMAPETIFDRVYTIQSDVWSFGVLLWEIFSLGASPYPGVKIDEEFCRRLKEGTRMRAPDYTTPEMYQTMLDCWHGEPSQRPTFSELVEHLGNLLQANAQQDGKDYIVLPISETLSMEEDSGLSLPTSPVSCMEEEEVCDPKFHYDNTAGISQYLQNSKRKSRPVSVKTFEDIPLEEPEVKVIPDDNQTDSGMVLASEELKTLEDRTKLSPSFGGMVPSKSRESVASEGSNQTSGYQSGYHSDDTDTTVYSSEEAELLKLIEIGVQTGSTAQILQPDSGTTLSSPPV
pIC50: −log10 of the molar value.
PROPERTY: pIC50

>>> result("O=C(O)c1ccc(Nc2ccnc(SCC(=O)c3ccc([N+](=O)[O-])cc3)n2)cc1")
"< 5.00"
>>> result("O=C(O)c1ccc(Nc2ccnc(SCC(=O)c3ccc(C(F)(F)F)cc3)n2)cc1")
"< 5.00"
>>> result("CCOC(=O)c1ccc(Nc2ccnc(SCC(=O)c3ccc(Cl)cc3)n2)cc1")
"< 5.00"
